target: epidermal growth factor receptor variant III (EGFRvIII) (human) (UniProt P00533); assay: flow cytometry on U87MG-EGFRvIII cells, apparent KD (KD-app), mean of several experiments
Let's look at some binders and their measured Kd.
# value in nM; strip the unit string

| binder | Kd, nM |
| --- | --- |
| humanized 4E11 antibody hH3-hL2 (antibody, human IgG4 S228P, kappa, V domains shown, Human IgG4(S228P), C-terminal Lys deleted, human kappa; made in CHO cells; 16) for this name; 17) VH: QVQLQESGPGLVKPSQTLSLTCTVSGYSITSDYAWNWIRQPPGKGLEWMGYIGYNGRTSYNPSLKSRITISRDTSKNQFSLKLSSVTAADTAVYYCARLGRGFAYWGQGTLVTVSS VL: DIQMTQSPSSLSASVGDRVTITCHASQGINSNIGWLQQKPGKAPKGLIYHGTNLEDGVPSRFSGSGSGTDYTLTISSLQPEDFATYYCVQYAQFPYTFGQGTKLEIKR | 7.9 |
| humanized 4E11 antibody hH2-hL1 (antibody, human IgG4 S228P, kappa, V domains shown, Human IgG4(S228P), C-terminal Lys deleted, human kappa; made in CHO cells; 16) for this name; 16) VH: QVQLQESGPGLVKPSQTLSLTCTVSGYSITSDYAWNWIRQPPGKGLEWIGYIGYNGRTSYNPSLKSRVTISRDTSKNQFSLKLSSVTAADTAVYYCARLGRGFAYWGQGTLVTVSS VL: DIQMTQSPSSLSASVGDRVTITCHASQGINSNIGWYQQKPGKAPKLLIYHGTNLEDGVPSRFSGSGSGTDYTLTISSLQPEDFATYYCVQYAQFPYTFGQGTKLEIKR | 5.8 |
| humanized 4E11 antibody hH2-hL2 (antibody, human IgG4 S228P, kappa, V domains shown) VH: QVQLQESGPGLVKPSQTLSLTCTVSGYSITSDYAWNWIRQPPGKGLEWIGYIGYNGRTSYNPSLKSRVTISRDTSKNQFSLKLSSVTAADTAVYYCARLGRGFAYWGQGTLVTVSS VL: DIQMTQSPSSLSASVGDRVTITCHASQGINSNIGWLQQKPGKAPKGLIYHGTNLEDGVPSRFSGSGSGTDYTLTISSLQPEDFATYYCVQYAQFPYTFGQGTKLEIKR | 10.5 |

// next entry
Lookup result for humanized 4E11 antibody hH3-hL3 (antibody, human IgG4 S228P, kappa, V domains shown, Human IgG4(S228P), C-terminal Lys deleted, human kappa; made in CHO cells; 17) for this name; 18) VH: QVQLQESGPGLVKPSQTLSLTCTVSGYSITSDYAWNWIRQPPGKGLEWMGYIGYNGRTSYNPSLKSRITISRDTSKNQFSLKLSSVTAADTAVYYCARLGRGFAYWGQGTLVTVSS VL: DIQMTQSPSSLSASVGDRVTITCHASQGINSNIGWLQQKPGKAFKGLIYHGTNLEDGVPSRFSGSGSGTDYTLTISSLQPEDFATYYCVQYAQFPYTFGQGTKLEIKR ; measured Kd: 7.1
